Just for reference, ChEMBL document CHEMBL1201862 is where these values come from.

# System: MCF7
# PROCEDURE_SUMMARY: NCI tumour cell line growth inhibition, 48 h
The source made the active and inactive calls. No stated cut-off is given here; in the data, active = GI50 up to about 1.1 µM and inactive = higher.
Give one outcome, nothing more. List: 1 (active), -1 (inactive)

Examples from the recorded data:
| COMPOUND | CATEGORY |
| --- | --- |
| O=C(CCc1ccc(O)c(O)c1)NCCc1cc(O)cc(O)c1 | -1 |
| COC(=O)C1(CCC(=O)N(C)c2ccccc2)NNC2C(=O)N(c3ccccc3)C(=O)C21 (stereo not given) | -1 |
| O=C1OC(c2ccccc2)=N/C1=C\c1ccc(Br)cc1 | -1 |
| CC/C=C/C(CC)C/C(C)=C\[C@]1(CC)C[C@H](CC)[C@H](CC(=O)O)OO1 (stereo not given in full) | -1 |
| CCOC(=O)c1c2c(n(-c3ccc(OC)cc3)c1C)C(=O)C(=O)c1ccccc1-2 | 1 |

Query string: Assay result, entry `Cc1nc(-c2ccc(Cl)cc2)cn2c1nc1ccccc12` — outcome?
Result string: 1

Query string: Test call, this compound: `CC[C@@]1(O)C(=O)OCc2c1cc1n(c2=O)Cc2c-1nc1ccccc1c2/C=N\NC(=O)CN`
Result string: 1

Query string: // return assay outcome for `COC(=O)/C=C/c1ccc2nncnc2c1.COC(=O)/C=C\c1ccc2nncnc2c1`
Result string: -1

Query string: Which outcome did this test record for the compound `COC(=O)c1ccc(/C=N/c2ccc(S(N)(=O)=O)cc2)cc1` ?
Result string: -1

Query string: Check the results log: what was the call for `CSc1cc(Cl)c(C)cc1S(=O)(=O)NC(=O)NNc1ccc(C)cc1` ?
Result string: -1

###

# Test system: HCT-15
Criterion: GI50 strictly under 30 µM. Met: 1 (yes). Not met: 0 (no).

The examples below pair each entry with its known result.
| MOLECULE | CATEGORY |
| --- | --- |
| Cc1ccc(O)c(/N=N/c2ccc(S(=O)(=O)O)cc2)n1 | 0 (no) |
| COC(=O)c1ccc2n1C1CC3CC(CC2C3)C1 | 0 (no) |
| CCOC(=O)c1sc2c(c1OC(=O)c1ccc(Cl)cc1Cl)c(=O)n(-c1ccccc1)c(=S)n2-c1ccccc1 | 1 (yes) |
| CCOP(=O)(Cc1nc(C#N)c(N)o1)OCC | 0 (no) |
| FC(F)(F)c1ccc2nc(NCc3ccccc3)c(-c3ccccc3)nc2c1 | 1 (yes) |
| O=C(c1cc(Cl)ccc1Cl)N1CCN(c2ccc(Cl)c(Cl)c2)CC1 | 1 (yes) |
| COc1ccc(OC)c(/C=C2\CCc3ccccc3C2=O)c1 | 1 (yes) |
| Cc1c(C(=O)c2ccccc2C(=O)O)c2ccccc2n1C | 0 (no) |

Query string: Lab note: confirm whether the reported GI50 for this molecule is below 30 µM, equality not counting. molecule: `NC(=S)Nc1nc(=S)[nH]c2[nH]ccc12`
Result string: 0 (no)

Query string: Bench note: check whether Cc1cn(C2CC(O)C(CO[Si](C)(C)C(C)(C)C)OC2OC(C)C)c(=O)[nH]c1=O (stereo not given) shows GI50 below 30 µM
Result string: 0 (no)

###

As a worked illustration, we turn to GI50 data collected for HCT-15.
Answers are plain numbers, in µM.

Use the examples below as a reference point.
| COMPOUND | UNITS_OF_MEASURE | GI50 |
| --- | --- | --- |
| C=C(CN(C)C)C(=O)c1ccc(C)cc1C | µM | 4.52 |
| O=C1/C(=C/c2ccccc2)CN(C(=O)/C=C/c2ccccc2)C/C1=C\c1ccccc1 | µM | 6.17 |
| O=C1OC2C(O)COC2(O)C1(O)C(C[N+](=O)[O-])c1ccc(Cl)cc1 (configuration not stated) | µM | 6.84 |
| CC(C)CCCC(C)[C@H]1CC[C@H]2N/C(=N/c3ccccc3)CCC[C@]12C (some centres not stated) | µM | 1.07 |
| C[C@H]1[C@H](C)CC[C@]2(C(=O)O)CCC3(COC(=O)/C=C/c4ccc(O)cc4)C(=CCC4[C@@]5(C)CC[C@H](O)C(C)(C)C5CC[C@]43C)[C@H]12 (some centres not stated) | µM | 4.62 |
| CCSC1=CC(=O)c2nc3ccccc3c3ccnc1c23 | µM | 2.31 |
| CC1CN=C(N(C)C(=O)Nc2ccc(Cl)c(Cl)c2)S1 (configuration not stated) | µM | 21.3 |
| COc1ccccc1N1C(=O)CSC1c1cc(OC)c(OC)c(OC)c1 (configuration not stated) | µM | 50.6 |
| COc1cc2c(/C=C3/C(=O)Nc4ccc(O)cc43)c(Cl)[nH]c2cc1C | µM | 0.107 |

// next item, GI50 requested
Query string: Give its GI50 value. Item: O=C(CC1C(=O)Nc2ccccc2S1(=O)=O)Nc1cccc(Cl)c1 (configuration not stated)
Result string: 15.5
